- Assay system: Kir3.1/3.4 (Rattus norvegicus, UniProt P48548+P63251)
- Construct: expressed in transfected cells
- Sequence (P63251 whole entry): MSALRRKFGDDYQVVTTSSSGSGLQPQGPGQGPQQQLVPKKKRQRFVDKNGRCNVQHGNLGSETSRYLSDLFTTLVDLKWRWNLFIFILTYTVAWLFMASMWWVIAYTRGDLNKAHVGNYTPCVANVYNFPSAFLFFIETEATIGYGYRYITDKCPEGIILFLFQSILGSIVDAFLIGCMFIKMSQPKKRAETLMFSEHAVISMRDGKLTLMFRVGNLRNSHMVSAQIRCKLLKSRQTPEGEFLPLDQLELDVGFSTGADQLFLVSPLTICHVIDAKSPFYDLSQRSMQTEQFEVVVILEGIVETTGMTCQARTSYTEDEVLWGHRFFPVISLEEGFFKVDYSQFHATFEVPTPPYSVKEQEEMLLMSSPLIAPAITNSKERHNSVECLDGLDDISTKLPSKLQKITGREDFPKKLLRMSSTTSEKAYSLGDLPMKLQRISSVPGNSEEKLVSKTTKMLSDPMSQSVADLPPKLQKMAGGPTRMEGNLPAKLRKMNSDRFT
- Sequence (P48548 whole entry): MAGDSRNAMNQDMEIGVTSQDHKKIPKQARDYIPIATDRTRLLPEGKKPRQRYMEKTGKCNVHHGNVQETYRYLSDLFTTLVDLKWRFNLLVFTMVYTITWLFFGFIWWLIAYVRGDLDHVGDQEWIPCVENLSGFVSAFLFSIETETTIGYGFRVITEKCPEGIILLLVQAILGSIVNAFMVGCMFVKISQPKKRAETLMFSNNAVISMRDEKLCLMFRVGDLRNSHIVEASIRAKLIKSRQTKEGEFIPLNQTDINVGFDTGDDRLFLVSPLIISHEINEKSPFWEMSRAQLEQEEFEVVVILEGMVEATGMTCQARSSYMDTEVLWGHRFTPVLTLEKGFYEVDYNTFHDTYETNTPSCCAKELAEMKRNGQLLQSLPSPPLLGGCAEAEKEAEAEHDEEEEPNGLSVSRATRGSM
- Assay name: Kir3.1/3.4 Q-patch Method (automated patch clamp, Sophion Q-patch)
- Format: cell-based
- Stated conditions: HEK293 cells stably-expressing Kir3.1/3.4; current at -120 mV; QPatch-16 or QPatch-48
pIC50: −log10 of the molar value.
Below, each of the molecules is paired with its reported pIC50 value.
Property measured: pIC50

Molecule | Assay system | Experimental result
COc1ccccc1-c1csc2nc(N3C4CCC3CC(CO)C4)nc(N3C4CCC3CC(OC)C4)c12 (centres unmarked) | Kir3.1/3.4 (Rattus norvegicus, UniProt P48548+P63251) | 5.52 to 6.30
OC1CCN(c2nc(N3C4CCC3COC4)c3c(-c4ccccc4Cl)csc3n2)C1 (centres unmarked) | Kir3.1/3.4 (Rattus norvegicus, UniProt P48548+P63251) | > 6.30
COCC1CC2CCC(C1)N2c1nc(N2C3CCC2COC3)c2c(-c3ccccc3OC)csc2n1 (centres unmarked) | Kir3.1/3.4 (Rattus norvegicus, UniProt P48548+P63251) | 5.52 to 6.30
COc1ccccc1-c1csc2nc(N3CCNC(C(N)=O)C3)nc(N3C4CCC3COC4)c12 (centres unmarked) | Kir3.1/3.4 (Rattus norvegicus, UniProt P48548+P63251) | > 6.30
COCC1CC2CCC(C1)N2c1nc(C#N)nc2scc(-c3ccccc3OC)c12 (centres unmarked) | Kir3.1/3.4 (Rattus norvegicus, UniProt P48548+P63251) | > 6.30
COc1ccccc1-c1csc2nc(N3CCNC(=O)C3)nc(N3C4CCC3COC4)c12 | Kir3.1/3.4 (Rattus norvegicus, UniProt P48548+P63251) | > 6.30
COC1CC2CCC(C1)N2c1nc(N2C3CCC2CC(O)C3)nc2scc(-c3ccccc3Cl)c12 (centres unmarked) | Kir3.1/3.4 (Rattus norvegicus, UniProt P48548+P63251) | 5.52 to 6.30
COC1CC2CCC(C1)N2c1nc(N2CCNC(=O)C2)nc2scc(-c3ccccc3Cl)c12 (centres unmarked) | Kir3.1/3.4 (Rattus norvegicus, UniProt P48548+P63251) | 5.52 to 6.30
COc1ccccc1-c1csc2nc(N3CCCC(C(N)=O)C3)nc(N3C4CCC3COC4)c12 (centres unmarked) | Kir3.1/3.4 (Rattus norvegicus, UniProt P48548+P63251) | 5.52 to 6.30
COc1ncccc1-c1csc2ncnc(N3C4CCC3CC(CNC3CCC3)C4)c12 (centres unmarked) | Kir3.1/3.4 (Rattus norvegicus, UniProt P48548+P63251) | > 6.30
COc1ccccc1-c1csc2nc(N3CCOC(C(N)=O)C3)nc(N3C4CCC3COC4)c12 (centres unmarked) | Kir3.1/3.4 (Rattus norvegicus, UniProt P48548+P63251) | 5.52 to 6.30
O=C1CN(c2nc(N3C4CCC3COC4)c3c(-c4ccccc4Cl)csc3n2)CCN1 | Kir3.1/3.4 (Rattus norvegicus, UniProt P48548+P63251) | > 6.30
COCC1CC2CCC(C1)N2c1nc(N2C3CCC2CC(O)C3)nc2scc(-c3ccccc3OC)c12 (centres unmarked) | Kir3.1/3.4 (Rattus norvegicus, UniProt P48548+P63251) | > 6.30
COc1ccccc1-c1csc2nc(N3CCNC(=O)C3)nc(N3C4CCC3CC(OC)C4)c12 (centres unmarked) | Kir3.1/3.4 (Rattus norvegicus, UniProt P48548+P63251) | > 6.30
COc1ccccc1-c1csc2nc(C#N)nc(N3C4CCC3CC(OC)C4)c12 (centres unmarked) | Kir3.1/3.4 (Rattus norvegicus, UniProt P48548+P63251) | 5.52 to 6.30
COc1ccccc1-c1csc2nc(N3C4CCC3CC(O)C4)nc(N3CCC(C(N)=O)C3)c12 (centres unmarked) | Kir3.1/3.4 (Rattus norvegicus, UniProt P48548+P63251) | 5.52 to 6.30
NC(=O)C1CCCN(c2nc(N3C4CCC3CC(CO)C4)nc3scc(-c4ccccc4Cl)c23)C1 (centres unmarked) | Kir3.1/3.4 (Rattus norvegicus, UniProt P48548+P63251) | > 6.30
